Just for reference, the supplement of paper PMC8728848 is where these values come from.

- Target Under Test: Neu5Gc(b2-6)Gal(b1-4)GlcNAc
- Measurement Description: glycan array binding signal (z-score within array); higher = stronger binding
- Condition Description: glycan notation: IUPAC condensed, linker removed
Shown is part of a subset that was picked to be rich in the strongest signals.
Property Label: glycan array binding signal (z-score)

>>> reported_result("MCL (Mus musculus), Q9Z2H6 (protein) MWLEESQMKSKGTRHPQLIPCVFAVVSISFLSACFISTCLVTHHYFLRWTRGSVVKLSDYHTRVTCIREEPQPGATGGTWTCCPVSWRAFQSNCYFPLNDNQTWHESERNCSGMSSHLVTINTEAEQNFVTQLLDKRFSYFLGLADENVEGQWQWVDKTPFNPHTVFWEKGESNDFMEEDCVVLVHVHEKWVWNDFPCHFEVRRICKLPGITFNWKPSK")
0.767

// moving on: another record for glycan array binding signal (z-score)
Give the measured glycan array binding signal (z-score) of AMA (Arum maculatun) (protein) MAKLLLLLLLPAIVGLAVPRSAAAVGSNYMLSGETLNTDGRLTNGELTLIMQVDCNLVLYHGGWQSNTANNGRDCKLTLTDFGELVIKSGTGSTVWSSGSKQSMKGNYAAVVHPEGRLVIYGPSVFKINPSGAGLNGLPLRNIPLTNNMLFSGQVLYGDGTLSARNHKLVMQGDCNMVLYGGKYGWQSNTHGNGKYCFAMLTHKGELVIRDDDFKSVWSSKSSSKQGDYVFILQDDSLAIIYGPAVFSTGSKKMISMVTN .
-0.21
